Item-by-item account of concentration at 24 h
# assayExplanation: Brain penetration in rats, brain to plasma ratios (Kp,brain, Kpuu,brain)
# Type: in vivo, Sprague-Dawley rats
# conditions: Sprague-Dawley, rat, plasma, intravenous, 1 mg/kg/hr, individual rats (Rat 1-3); IV infusion 1 mg/kg/hr over 24 hours, at 24 hours; read-out: Plasma Concentration

{"compound": "CCn1cc(-c2cc3c(N4CCN(c5ncc([C@@](C)(N)c6ccc(F)cc6)cn5)CC4)ncnn3c2)cn1 [Compound 63, reference compound]", "unit": "ng/mL", "concentration at 24 h": 1140}
{"compound": "C[C@](N)(c1ccc(F)cc1)c1cnc(N2CCN(c3ncnn4cc(-c5cnn(CCO)c5)cc34)CC2)nc1", "unit": "ng/mL", "concentration at 24 h": 859}
